// data source = PubChem BioAssay (NCI)

- Test system: IGROV1 ovarian
- protocol: NCI-60 one-dose screen, 48 h (100 = growth as untreated, 0 = no growth, -100 = all killed)
- experimental context: 10 µM
The panel holds about 83,000 compounds, 20% with a hit somewhere; the sample as a whole holds those more often.
param class (str): category from growth; see ranges bottom end: < 40%; midrange: ≥ 40% and < 90%; top end: ≥ 90%

compound	experimental target	cat
Clc1ccc(-c2cn(-c3ccccc3)c(-c3ccccc3)n2)c(Cl)c1	IGROV1 ovarian	bottom end
COc1cc(/C=C2\CCCC3=C2N=C2SC=NN2C3c2cc(OC)c(OC)c(OC)c2)cc(OC)c1OC (stereo not given)	IGROV1 ovarian	bottom end
O=C1OCC2=C1C(c1cccc(Cl)c1)c1cc3c(cc1N2CCO)OCO3 (stereo not given)	IGROV1 ovarian	midrange
O=c1c2ccccc2nc(SCCN2CCCCC2)n1CCc1ccccc1	IGROV1 ovarian	midrange
COc1ccc(OC)c(NC(=O)c2sc3nc4c(cc3c2N)C(=O)CCC4)c1	IGROV1 ovarian	top end
COc1ccc(/C=C/C(=O)Nc2ccc(-c3nc4ccc(OC)cc4s3)cc2)cc1	IGROV1 ovarian	top end
CN(C)CC(O)c1ccc2cc(Br)c3ccccc3c2c1 (stereo not given)	IGROV1 ovarian	bottom end
O=S(=O)(NCCNc1nccc(-c2c(-c3ccc(F)cc3)nc3sccn23)n1)c1ccc2ccccc2c1	IGROV1 ovarian	midrange
